- PROTOCOL_NOTES: in vivo
- RUN_CONDITIONS: rat
ENDPOINT_LABEL: MTD

Q: Would you kindly share the measured MTD for CC(=O)O[C@H]1C(=O)[C@@]2(C)[C@H]([C@H](OC(=O)c3ccccc3)[C@]3(O)C[C@H](OC(=O)[C@H](O)[C@@H](NC(=O)c4ccccc4)c4ccccc4)C(C)=C1C3(C)C)[C@]1(OC(C)=O)CO[C@@H]1C[C@@H]2O [Taxol] ?
Result: 50 mg/kg

Q: Would you kindly share the measured MTD for COc1cccc2c1C(=O)c1c(O)c3c(c(O)c1C2=O)C[C@@](O)(C(=O)CO)C[C@@H]3O[C@H]1C[C@H](N)[C@H](O)[C@H](C)O1 [Doxorubicin, doxorubicin] ?
Result: 6 mg/kg
